- tested on: human recombinant serotonin (5-Hydroxytryptamine) 5-HT6 receptor (Homo sapiens)
- Construct: expressed in transfected cells; host or cells: human HeLa cells
- Sequence (P50406 whole entry): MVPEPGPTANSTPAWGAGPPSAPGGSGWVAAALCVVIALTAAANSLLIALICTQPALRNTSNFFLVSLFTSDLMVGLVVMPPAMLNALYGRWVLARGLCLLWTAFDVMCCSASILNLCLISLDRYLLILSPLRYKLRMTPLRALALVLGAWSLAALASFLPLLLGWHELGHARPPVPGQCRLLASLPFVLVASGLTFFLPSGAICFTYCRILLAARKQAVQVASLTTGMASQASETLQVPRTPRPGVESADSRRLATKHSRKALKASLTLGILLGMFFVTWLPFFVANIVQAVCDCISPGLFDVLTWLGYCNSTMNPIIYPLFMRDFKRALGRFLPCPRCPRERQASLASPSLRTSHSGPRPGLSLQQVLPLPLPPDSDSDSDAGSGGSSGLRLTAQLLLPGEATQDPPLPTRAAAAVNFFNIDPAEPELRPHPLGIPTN
- assay text: Serotonin 5-HT6 radioligand binding ([3H]LSD)
- condition info: compound at 1 μM; read-out: Serotonin (1 μM) 5-HT6, percent inhibition of specific binding
For each of the compounds below, state its inhibition at 1 µM.
Lab book: enter the figure in %, no units written.

q: Query inhibition at 1 µM on human recombinant serotonin (5-Hydroxytryptamine) 5-HT6 receptor (Homo sapiens) for Cc1ccc2c(c1)c1c(n2CC(=O)N2CCCCC2)CCN(C)CC1
a: 4

q: Query inhibition at 1 µM on human recombinant serotonin (5-Hydroxytryptamine) 5-HT6 receptor (Homo sapiens) for C/C(=C\n1c2c(c3cc(Cl)ccc31)CCN(C)CC2)c1ccc(F)cc1
a: 103

q: Query inhibition at 1 µM on human recombinant serotonin (5-Hydroxytryptamine) 5-HT6 receptor (Homo sapiens) for COc1ccc(C(O)Cn2c3c(c4cc(C)ccc42)CCN(C)CC3)cc1 (stereo not drawn)
a: 73

q: Query inhibition at 1 µM on human recombinant serotonin (5-Hydroxytryptamine) 5-HT6 receptor (Homo sapiens) for C=C(Cn1c2c(c3cc(Cl)ccc31)CCN(C)CC2)c1ccc(F)cc1
a: 104

q: Query inhibition at 1 µM on human recombinant serotonin (5-Hydroxytryptamine) 5-HT6 receptor (Homo sapiens) for C/C(=C\n1c2c(c3cc(Cl)ccc31)CCN(C)CC2)c1ccc(Cl)c(Cl)c1
a: 92

q: Query inhibition at 1 µM on human recombinant serotonin (5-Hydroxytryptamine) 5-HT6 receptor (Homo sapiens) for Cc1ccc2c(c1)c1c(n2CC(=O)N2CCC(C)CC2)CCN(C)CC1
a: 16

----------
- tested on: human recombinant histamine H1 receptor (Homo sapiens, UniProt P35367)
- Construct: expressed in transfected cells; host or cells: CHO cells
- Sequence (P35367 whole entry): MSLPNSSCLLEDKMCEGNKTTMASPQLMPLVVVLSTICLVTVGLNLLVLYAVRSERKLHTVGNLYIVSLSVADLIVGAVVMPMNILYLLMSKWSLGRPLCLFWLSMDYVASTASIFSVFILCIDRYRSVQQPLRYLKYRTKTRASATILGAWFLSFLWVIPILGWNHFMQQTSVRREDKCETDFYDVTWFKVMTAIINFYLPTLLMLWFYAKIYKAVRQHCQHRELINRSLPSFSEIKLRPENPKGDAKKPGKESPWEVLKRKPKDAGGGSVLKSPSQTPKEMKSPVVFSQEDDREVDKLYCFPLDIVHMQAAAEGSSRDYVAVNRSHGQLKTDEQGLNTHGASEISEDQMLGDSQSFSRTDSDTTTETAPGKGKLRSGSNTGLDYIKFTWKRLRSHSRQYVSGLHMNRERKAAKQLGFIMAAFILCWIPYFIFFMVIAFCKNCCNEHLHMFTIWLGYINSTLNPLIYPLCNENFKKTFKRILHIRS
- assay text: Histamine H1 radioligand binding ([3H]Pyrilamine)
- condition info: compound at 1 μM; read-out: Histamine Binding (1 μM) H1, percent inhibition of specific binding
For each of the compounds below, state its inhibition at 1 µM.
Lab book: enter the figure in %, no units written.

q: Query inhibition at 1 µM on human recombinant histamine H1 receptor (Homo sapiens, UniProt P35367) for Cc1ccc2c(c1)c1c(n2CC(=O)NC(C)C)CCN(C)CC1 [Compound No. 54]
a: 18

q: Query inhibition at 1 µM on human recombinant histamine H1 receptor (Homo sapiens, UniProt P35367) for Cc1ccc2c(c1)c1c(n2/C=C/c2ccc(Cl)cc2)CCN(C)CC1 [Compound No. 235]
a: 97

q: Query inhibition at 1 µM on human recombinant histamine H1 receptor (Homo sapiens, UniProt P35367) for Cc1ccc2c(c1)c1c(n2CC(O)c2ccc(C)nc2)CCN(C)CC1 (stereo not drawn) [Compound No. 23]
a: 58

q: Query inhibition at 1 µM on human recombinant histamine H1 receptor (Homo sapiens, UniProt P35367) for Cc1ccc2c(c1)c1c(n2CCc2cncc(Cl)c2)CCN(C)CC1 [Compound No. 4]
a: 100

q: Query inhibition at 1 µM on human recombinant histamine H1 receptor (Homo sapiens, UniProt P35367) for Cc1ccc2c(c1)c1c(n2CC(=O)N2CCCCC2)CCN(C)CC1 [Compound No. 32]
a: 11

q: Query inhibition at 1 µM on human recombinant histamine H1 receptor (Homo sapiens, UniProt P35367) for CN1CCc2c(n(CC(O)c3ccccc3)c3ccc(Cl)cc23)CC1 (stereo not drawn) [Compound No. 24]
a: 100

q: Query inhibition at 1 µM on human recombinant histamine H1 receptor (Homo sapiens, UniProt P35367) for CN1CCc2c(n(/C=C/c3ccc(F)c(F)c3)c3ccc(Cl)cc23)CC1 [Compound No. 236]
a: 99

q: Query inhibition at 1 µM on human recombinant histamine H1 receptor (Homo sapiens, UniProt P35367) for Cc1ccc2c(c1)c1c(n2CCc2ccccc2)CCN(C)CC1 [Compound No. 62]
a: 98

q: Query inhibition at 1 µM on human recombinant histamine H1 receptor (Homo sapiens, UniProt P35367) for CN1CCc2c(n(CC(=O)Nc3ccccc3)c3ccc(Cl)cc23)CC1 [Compound No. 73]
a: 18

q: Query inhibition at 1 µM on human recombinant histamine H1 receptor (Homo sapiens, UniProt P35367) for CN1CCc2c(n(CC(O)c3ccc(F)c(F)c3)c3ccc(Cl)cc23)CC1 (stereo not drawn) [Compound No. 58]
a: 98

q: Query inhibition at 1 µM on human recombinant histamine H1 receptor (Homo sapiens, UniProt P35367) for C/C(=C\n1c2c(c3cc(C)ccc31)CCN(C)CC2)c1ccccc1F [Compound No. 241]
a: 98

q: Query inhibition at 1 µM on human recombinant histamine H1 receptor (Homo sapiens, UniProt P35367) for Cc1ccc2c(c1)c1c(n2CC(=O)N2CCC(C)CC2)CCN(C)CC1 [Compound No. 225]
a: 95

q: Query inhibition at 1 µM on human recombinant histamine H1 receptor (Homo sapiens, UniProt P35367) for CN1CCc2c(n(CCc3ccccc3F)c3ccc(Cl)cc23)CC1 [Compound No. 61]
a: 97

q: Query inhibition at 1 µM on human recombinant histamine H1 receptor (Homo sapiens, UniProt P35367) for C/C(=C\n1c2c(c3cc(Cl)ccc31)CCN(C)CC2)c1ccc(Cl)c(Cl)c1 [Compound No. 154]
a: 94

q: Query inhibition at 1 µM on human recombinant histamine H1 receptor (Homo sapiens, UniProt P35367) for C/C(=C\n1c2c(c3cc(C)ccc31)CCN(C)CC2)c1ccncc1 [Compound No. 253]
a: 32

q: Query inhibition at 1 µM on human recombinant histamine H1 receptor (Homo sapiens, UniProt P35367) for CN1CCc2c(n(CCc3ccccc3Cl)c3ccc(Cl)cc23)CC1 [Compound No. 29]
a: 98

q: Query inhibition at 1 µM on human recombinant histamine H1 receptor (Homo sapiens, UniProt P35367) for C/C(=C\n1c2c(c3cc(C)ccc31)CCN(C)CC2)c1ccc(Cl)cc1 [Compound No. 33]
a: 87

q: Query inhibition at 1 µM on human recombinant histamine H1 receptor (Homo sapiens, UniProt P35367) for Cc1ccc2c(c1)c1c(n2CC(C)(O)c2ccc(Cl)cc2)CCN(C)CC1 (stereo not drawn) [Compound No. 15]
a: 100

q: Query inhibition at 1 µM on human recombinant histamine H1 receptor (Homo sapiens, UniProt P35367) for COc1ccc(/C=C/n2c3c(c4cc(Cl)ccc42)CCN(C)CC3)cc1OC [Compound No. 226]
a: 99

q: Query inhibition at 1 µM on human recombinant histamine H1 receptor (Homo sapiens, UniProt P35367) for Cc1ccc2c(c1)c1c(n2CCc2ccc(C(F)(F)F)nc2)CCN(C)CC1 [Compound No. 20]
a: 99

q: Query inhibition at 1 µM on human recombinant histamine H1 receptor (Homo sapiens, UniProt P35367) for CN1CCc2c(n(C#Cc3ccc(Cl)cc3)c3ccc(Cl)cc23)CC1 [Compound No. 282]
a: 99

q: Query inhibition at 1 µM on human recombinant histamine H1 receptor (Homo sapiens, UniProt P35367) for COc1ccc(/C=C/n2c3c(c4cc(C)ccc42)CCN(C)CC3)c(F)c1 [Compound No. 230]
a: 95

q: Query inhibition at 1 µM on human recombinant histamine H1 receptor (Homo sapiens, UniProt P35367) for Cc1ccc2c(c1)c1c(n2CC(O)c2ccc(Cl)cc2)CCN(C)CC1 (stereo not drawn) [Compound No. 17]
a: 101

q: Query inhibition at 1 µM on human recombinant histamine H1 receptor (Homo sapiens, UniProt P35367) for C/C(=C/n1c2c(c3cc(Cl)ccc31)CCN(C)CC2)c1ccccc1F [Compound No. 242]
a: 100
